- assayed-target: mouse ADAMTS7 (Mus musculus)
- Construct: Full-length mouse Adamts7 1-1857 (Uniprot Q68SA9, WT or E373Q catalytic mutant); expressed in transfected cells; host or cells: Human Coronary Artery Smooth Muscle Cells (HCA-SMC, Lonza), adenovirus 50 MOI
- Sequence (Q68SA9 221-1657): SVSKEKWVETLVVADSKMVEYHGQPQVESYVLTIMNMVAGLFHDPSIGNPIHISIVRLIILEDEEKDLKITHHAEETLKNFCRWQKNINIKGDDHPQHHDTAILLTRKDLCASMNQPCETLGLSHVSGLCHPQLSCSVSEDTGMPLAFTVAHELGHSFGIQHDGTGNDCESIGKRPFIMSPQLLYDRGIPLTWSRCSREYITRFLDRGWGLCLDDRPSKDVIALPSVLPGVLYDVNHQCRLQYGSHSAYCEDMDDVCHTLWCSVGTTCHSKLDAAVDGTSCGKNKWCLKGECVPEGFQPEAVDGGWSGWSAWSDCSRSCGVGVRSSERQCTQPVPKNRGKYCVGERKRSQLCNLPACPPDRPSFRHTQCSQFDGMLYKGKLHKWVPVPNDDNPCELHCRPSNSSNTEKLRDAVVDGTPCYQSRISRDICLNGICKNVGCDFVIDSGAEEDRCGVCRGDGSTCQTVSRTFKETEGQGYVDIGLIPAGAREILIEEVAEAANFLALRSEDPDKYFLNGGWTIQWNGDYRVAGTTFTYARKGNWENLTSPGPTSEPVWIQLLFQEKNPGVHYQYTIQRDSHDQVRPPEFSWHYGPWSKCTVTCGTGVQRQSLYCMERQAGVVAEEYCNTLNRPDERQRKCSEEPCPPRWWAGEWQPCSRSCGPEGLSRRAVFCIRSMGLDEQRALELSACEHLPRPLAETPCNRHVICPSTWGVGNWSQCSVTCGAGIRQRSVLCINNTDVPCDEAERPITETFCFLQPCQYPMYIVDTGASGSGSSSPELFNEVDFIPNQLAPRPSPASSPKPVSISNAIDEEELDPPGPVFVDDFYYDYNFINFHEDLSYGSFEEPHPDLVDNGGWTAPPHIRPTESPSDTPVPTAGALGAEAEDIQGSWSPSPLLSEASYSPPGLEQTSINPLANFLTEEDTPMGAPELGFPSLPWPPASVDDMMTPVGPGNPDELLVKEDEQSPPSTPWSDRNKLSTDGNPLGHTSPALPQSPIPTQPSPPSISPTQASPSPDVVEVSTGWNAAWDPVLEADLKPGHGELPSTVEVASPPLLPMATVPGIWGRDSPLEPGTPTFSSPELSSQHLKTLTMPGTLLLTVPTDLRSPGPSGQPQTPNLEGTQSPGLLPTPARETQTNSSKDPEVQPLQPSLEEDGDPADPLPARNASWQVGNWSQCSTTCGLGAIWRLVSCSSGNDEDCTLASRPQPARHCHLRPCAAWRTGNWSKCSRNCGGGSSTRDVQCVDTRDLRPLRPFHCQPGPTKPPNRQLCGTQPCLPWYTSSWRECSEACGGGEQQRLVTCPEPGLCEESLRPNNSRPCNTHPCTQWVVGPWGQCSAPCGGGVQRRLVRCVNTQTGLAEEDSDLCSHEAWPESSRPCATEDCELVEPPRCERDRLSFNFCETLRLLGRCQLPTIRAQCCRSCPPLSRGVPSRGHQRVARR
- experiment-notes: TMT10 TAILS N-terminomics, SMC1 experiment (Ad-mADAMTS7 WT vs EQ vs Luc, technical replicates, trypsin digest)
- Assay type: cell-based
- measurement-parameters: TAILS neo-N-terminal peptide abundance; log fold change, Ad-mADAMTS7 WT over Luc
Square brackets hold non-standard residues; d marks the D form. Ends that are not written are not given here.
experimental-endpoint: logFC.mWT.over.Lux

LOX_81 (NASAQQPR; listed as Homo sapiens) :: 1.38
ADAM9_69 (VIQAEGKEHIIHLER; listed as Homo sapiens) :: 1.45
LOXL2_38 ([code q]QPAPEYHQPQAPANVAKIQLR; not fully specified; listed as Homo sapiens) :: 1.37

1. HSPG2_3813 (SSGFIGCVR; listed as Homo sapiens)
2. MGAT4B_28 (LSGQKGDVVDVYQR; listed as Homo sapiens)
3. LTBP1_393 (LTATNFR; listed as Homo sapiens)
Query: Please produce an ascending ranking of these substances based on logFC.mWT.over.Lux. Sort and list the labels as requested.
Result: 1, 2, 3
